experimental-target: Nicotinamide N-methyltransferase (Homo sapiens)
assay-explanation: Primary Screen for Target Class Profiling of Small Molecule Inhibitors of Methyltransferases; further: on the % scale 0 is the no-effect control and ±100 the full control effect
details: purified enzyme, MTase-Glo SAH luminescence; measured here: NNMT inhibition; at 40 µM; stronger effect = lower value
The campaign covered roughly 25,000 compounds. About 970 (3.9%) were called active. About 8% were inconclusive and are not listed. Shown is part of a subset that was picked to be rich in actives.
experimental-readout: activity change, negative = inhibition (%)
Numbers only, in %.

The cases that follow already have their activity change, negative = inhibition on record.
Q) Data request, read-out activity change, negative = inhibition, for C[C@@H]1C[C@H]2O[C@@]3(O[C@@H]2C(C)(C)O)C(O)[C@@]2(C)C4CCC5C(C)(C)[C@@H](O[C@H]6OC[C@H](O)[C@@H](O)[C@@H]6O)CC[C@@]56C[C@@]46CC[C@]2(C)C13 (some centres undefined)
A) -13.7

Q) Recorded activity change, negative = inhibition for C=Cc1ccc(Cn2nc3n(CC(C)C)c(=O)c4ccc(C(=O)NC(C)CC)cc4n3c2=O)cc1 (centres undefined) , please?
A) -0.533

Q) Name the reported activity change, negative = inhibition value associated with the compound CCC(C)N1Cc2cc(NC(=O)c3ccc([N+](=O)[O-])cc3)ccc2OCC1=O (centres undefined)
A) -19.6

Q) Any idea what its activity change, negative = inhibition is? The compound is Cc1ccc(N2C(=O)c3cc(-c4ccco4)nn3CC2(C)C(=O)NC2CCCCC2)cc1Cl (centres undefined)
A) -7.94

# return activity change, negative = inhibition for each item in the list
1. CCCN1C(=O)c2c(C(=O)NCCc3ccco3)ncn2CC1(C)C(=O)NCc1ccc(C)cc1 (centres undefined)
2. COC1CCN(CC2CCCCCN2C(=O)NCc2ccc(F)cc2)CC1 (centres undefined)

A)
4.66
0.892

Please report activity change, negative = inhibition for every entry that follows.
1. Cc1cc2c(cc3n2CC(C)(C(=O)NC2CCCCC2)N(C2CCCCCC2)C3=O)o1 (centres undefined)
2. COc1ccccc1NC(=O)CSc1nnc2[nH]c(=O)c(C(C)(C)C)nn12
3. CCC(C)(C)NC(=O)c1cccc2c1CCN2C(=O)Nc1ccc(C)cc1

A)
1: -0.25; 2: -0.804; 3: -7.5

====

Field: activity change, negative = inhibition. Provide a value for each of the compounds that follow.
experimental-target: Guanidinoacetate N-methyltransferase (Homo sapiens) (UniProt Q14353)
assay-explanation: Primary Screen for Target Class Profiling of Small Molecule Inhibitors of Methyltransferases; further: on the % scale 0 is the no-effect control and ±100 the full control effect
details: purified enzyme, MTase-Glo SAH luminescence; measured here: GAMT inhibition; at 40 µM; stronger effect = lower value
Experimental: PI: Matthew D. Hall Ph.D. and Quinlin M. Hanson Ph.D. National Center for Advancing Translational Sciences (NCATS) National Institute of Health (NIH), Rockville, MD […] High-through put screening assays were developed at the National Center for Advancing Translational Science (NCATS) for the enzymes NNMT, PNMT, HNMT, GNMT, COMT, and GAMT. Enzymatic activity was measured as a function of SAM cofactor conversion using the MTase Glo kit (Promega) for all enzymes. […]
In all, about 25,000 compounds went through this assay and about 970 (3.9%) were called active. Roughly 8% stayed inconclusive and do not appear here. Shown is part of a subset that was picked to be rich in actives.
Numbers only, in %.

Q) Provide the documented activity change, negative = inhibition with Guanidinoacetate N-methyltransferase (Homo sapiens) (UniProt Q14353) as the system for COc1c2c(c(C)c3c1C(=O)OC3)OC1(C)CC(O)C34OC(O)(CCC3(C)C1C2)OC4(C)C (centres undefined)
A) -7.45

Q) # returns recorded activity change, negative = inhibition (system: Guanidinoacetate N-methyltransferase (Homo sapiens) (UniProt Q14353)) for CCCn1c(=O)c2cc(Cl)ccc2n2c(SCC(=O)Nc3cccc(Cl)c3)nnc12
A) -0.122

Q) # returns recorded activity change, negative = inhibition (system: Guanidinoacetate N-methyltransferase (Homo sapiens) (UniProt Q14353)) for CCCn1c(=O)c2ccc(C(=O)NC(C)C)cc2n2c(=O)n(CC(=O)NCc3ccccc3Cl)nc12
A) 1.92

Q) Lookup: activity change, negative = inhibition / Guanidinoacetate N-methyltransferase (Homo sapiens) (UniProt Q14353) / Cc1nonc1OCCn1ccnc1-c1cn(C2CCNCC2)nn1
A) -0.534

Q) Provide the documented activity change, negative = inhibition with Guanidinoacetate N-methyltransferase (Homo sapiens) (UniProt Q14353) as the system for CCNC(=O)C#Cc1ccc2c(C(=Nc3ccc(CN(C)C)cc3)c3ccccc3)c(O)[nH]c2c1
A) -5.11

// for each compound in input: emit activity change, negative = inhibition
1. CCCCN1C(=O)c2cc(C(=O)NCc3cccc(OC)c3)nn2CC1(C)C(=O)NC1CCCC1 (centres undefined)
2. C=CCn1c(=O)c2ccc(C(=O)NC(C)C)cc2n2c(=O)n(CC(=O)NCc3ccccc3)nc12
3. CC1=C(C(=O)O)/C(=C/CO[C@@H]2O[C@H](COC(=O)/C=C/c3ccc(O)cc3)[C@@H](O)[C@H](O)[C@H]2O)C(O)C1 (some centres undefined)
4. O=S(=O)(c1ccc2[nH]c3c(c2c1)CCCC3)N1CCN(Cc2ccccc2)CC1
5. CSc1cccc(CN(C)Cc2cc3n(n2)CCNC3)c1
6. CCC(C)(C)NC(=O)c1cccc2c1CCN2C(=O)Nc1ccc(C)cc1
7. COc1ccccc1CN1C(=O)c2cc3sccc3n2CC1(C)C(=O)NC1CCCC(C)C1C (centres undefined)
8. CC1=C[C@@H](CNS(=O)(=O)c2cccc(C#N)c2)[C@H](C(C)C)C[C@H]1CC(=O)N(C)Cc1cccnc1

A)
[1.34, 1.61, 4.63, 0, -2.55, -2.95, 0, -3.45]

Please state, for each entry, its recorded activity change, negative = inhibition.
1. CN1CCCN(S(=O)(=O)c2cccs2)c2ccccc21
2. COC(=O)C(C)C1CCC2(C)C(=O)C=CC(C)(O)C2C1O (centres undefined)
3. Cc1cc2c(cc3n2CC(C)(C(=O)NC2CCCCCC2)N(Cc2cccs2)C3=O)o1 (centres undefined)
4. CCN(CC)CCCCNc1ncc2cc(-c3c(Cl)cccc3Cl)c(NC(=O)NC(C)(C)C)nc2n1
5. COCCn1c(=O)c(C(=O)N2CCN(C(C)=O)CC2)nc2cccnc21
6. CCCn1c(=O)c2cc(Cl)ccc2n2c(SCC(=O)Nc3ccc(Cl)cc3)nnc12

A)
1: -3.04; 2: 3.5; 3: 4.66; 4: 10.6; 5: -10.4; 6: 4.35
